The measurements presented in this section are drawn from PubChem BioAssay (NCI).

System: ACHN renal
Assay: NCI tumour cell line growth inhibition, 48 h
# if value of TGI reaches 20 µM, tag 1 (yes); if it stays below, tag 0 (no)

1. CC(=O)[CH-]C(=O)c1ccccc1.CC(=O)[CH-]C(=O)c1ccccc1.CC[O-].O=C1c2ccccc2C(=O)c2c1ccc(O)c2[O-].[Ti+4]: 1 (yes)
2. CC#Cc1nc(Nc2cc(C)[nH]n2)c2ccccc2n1: 0 (no)
3. [N-]=[N+]=Nc1c([N+](=O)[O-])c(=O)n2c3c(cccc13)CCC2: 1 (yes)
4. c1ccc(CN2CCN3CCN(CC2)CCN(Cc2ccccc2)CC3)cc1: 1 (yes)
5. C=C1C(=O)OC2CC3(C)OC3CC/C(C)=C/C(OC(C)=O)C12 (configuration not stated): 1 (yes)
6. CC(=O)c1cc(O)c2ccccc2c1O: 1 (yes)
7. C[C@]12CCC(=O)C=C1CC[C@@H]1C2CC[C@]2(C)c3nn(-c4ccccc4)nc3CC12 (some centres not stated): 1 (yes)
8. O=c1ccc2ccc(O)cc2o1: 1 (yes)
9. CC(C)=CCCC(C)C1=C(O)C(=O)C(C)=CC1=O (configuration not stated): 0 (no)
10. O=C1/C(=C/c2ccc(Br)cc2)CCC/C1=C\c1ccc(Br)cc1: 1 (yes)
11. Brc1cc2c(cc1Br)CN(c1ccccc1)C2: 1 (yes)
12. O=C(O)C(=O)/C=C(\O)c1ccc(Br)cc1: 1 (yes)

* * *

Test system: IGROV1 ovarian
Experiment: NCI tumour cell line growth inhibition, 48 h
Measurement name: TGI (µM)

1) c1ccc(CN2CCN3CCN(CC2)CCN(Cc2ccccc2)CC3)cc1: 22.1
2) C[C@H]1COC2=C1C(=O)C(=O)c1c2ccc2c1CCCC2(C)C: 29.2
3) COc1ccc(-c2nn(-c3ccc(NC(=O)Nc4ccc(Cl)c(C(F)(F)F)c4)cc3)cc2-c2ccncc2)cc1Cl: 63.1

* * *

Test system: SF-295 CNS
Assay: NCI tumour cell line growth inhibition, 48 h
Here the recorded TGI is given for each entry.
Measurement name: TGI

1) O=c1c2ccccc2nc(N/N=C/c2ccccc2O)n1-c1ccccc1: > 100 µM
2) CN(C)CCCn1c(-c2nonc2N)nc2cnccc21: > 25 µM
3) Cc1cn(S(=O)(=O)c2ccccc2)c2c(OCc3ccccc3)cc(NS(C)(=O)=O)cc12: > 100 µM
4) CC(O)c1cc(C(=O)N[C@@H](C)Cn2ccc(-c3ccc(C#N)c(Cl)c3)n2)n[nH]1 (stereo partly specified): > 100 µM
5) O=C(/C=C\c1cccc2ccccc12)c1cccc2ccccc12: 30.2 µM
6) O=C1CSc2cc([N+](=O)[O-])ccc2N1: > 100 µM

* * *

Tested on: HS 578T breast
Assay: NCI tumour cell line growth inhibition, 48 h
Measurement name: TGI (µM)

1) C=C(C(=O)O[C@H]1C(=O)C2=C(C)CCC3C(=C)C(=O)O[C@@H]3C2[C@]1(C)O)C1CC[C@]2(C)CCCC(=C)[C@H]2C1 (stereo partly specified): 15.8
2) O=Nc1c(-c2c(O)[nH]c3ccc(Br)cc23)[nH]c2ccccc12: 10.2
3) COC(=O)C1=C(C(=O)OC)SC2(S1)C(C(=O)OC)=C(C(=O)OC)Sc1c2ssc1=NC(C)(C)C: 18.5
4) Cc1ccc(-c2cc(O)c(-c3ccc(C)cc3C)cc2O)c(C)c1: 61.9
5) CC(C)(C)c1ccc(NS(=O)(=O)c2ccc3nc(NC(=O)c4cnccn4)[nH]c3c2)cc1: 13.2
